Tested on: UACC-62 melanoma
Test: NCI-60 one-dose screen, 48 h (100 = growth as untreated, 0 = no growth, -100 = all killed)
Details: 10 µM unless noted
The panel holds about 83,000 compounds, 20% with a hit somewhere; the sample as a whole holds those more often.
growth: recorded values
Use % as the unit, but write only the number.

Solved cases (5 shown):
CC1(C)CC[C@]2(C(=O)O)CC[C@]3(C)C(=CCC4[C@@]5(C)C[C@@H](O)[C@@H]6OC(c7cccc(Br)c7)OC[C@@]6(C)C5CC[C@]43C)C2C1 (stereo not given in full)	55.5
N#Cc1c(-c2ccc(Cl)cc2)nc2n[nH]c(-c3ccc(Cl)cc3)c2c1-c1cccs1	60.9
CN(C)c1ccnc(CNCCSC2(c3ccccc3)c3ccccc3C=Cc3ccccc32)c1	-32.2
COc1ccc2[nH]cc(-c3nc(N)nnc3-c3cn(C)c4ncccc34)c2c1	37.7
C=C1CC[C@@H]2[C@]3(C)COC(c4cn(-c5ccccc5)nc4-c4ccccc4)O[C@@H]3CC[C@@]2(C)[C@@H]1C/C=C1/C(=O)OC[C@H]1O (stereo not given in full)	-93.8

Problem: State the recorded growth for this entry: COc1ccc(-c2nc3cc(C)ccc3n2CC(=O)N=Nc2c(O)[nH]c3ccc(Cl)cc23)cc1
Result: -52.3

Problem: Could you tell me which growth is on file for Cc1c(C(=O)NNC(=O)c2ccc(Cl)cc2)nnn1-c1ccc(Cl)cc1 ?
Result: 86.1
